Target: UniProt:P21731
Sequence (P21731 whole entry): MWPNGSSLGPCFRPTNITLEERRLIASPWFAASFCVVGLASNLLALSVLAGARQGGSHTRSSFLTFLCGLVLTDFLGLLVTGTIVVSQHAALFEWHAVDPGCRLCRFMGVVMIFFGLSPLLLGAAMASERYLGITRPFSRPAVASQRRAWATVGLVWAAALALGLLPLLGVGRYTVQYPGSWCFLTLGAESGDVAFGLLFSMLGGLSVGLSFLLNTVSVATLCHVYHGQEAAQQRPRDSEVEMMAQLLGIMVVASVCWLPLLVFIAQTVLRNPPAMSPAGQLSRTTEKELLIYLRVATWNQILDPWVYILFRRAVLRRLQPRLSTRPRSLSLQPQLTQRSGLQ
Assay: Dissociation constant was determined from radioligand binding studies in human platelet membranes using Thromboxane A2 receptor radioligand [3H]-SQ 29,548.
Type: cell membranes
Measurement kind: pKd
Hey, just a heads up that pKd is the negative log base 10 of the concentration in molar.

INPUT: Quick one: pKd for O=C(O)CCc1ccccc1Cc1ccccc1-c1nc(C(=O)NCCCCC2CCCCC2)co1 ?
OUTPUT: 7.72

###

Organism: Homo sapiens
Experiment: Tested for inhibition of platelet aggregation induced by U-46,619 (U-IPA) in human platelet rich plasma
Assay type: functional
Details: read-out: I50
Criterion: IC50 strictly under 0.6 µM. Met: True. Not met: False.

Solved entries (count: 2):
| Molecule smiles | Label |
| --- | --- |
| O=C(O)CCc1ccccc1Cc1ccccc1-c1nc(C(=O)NCCCCC2CCCCC2)co1 | True |
| O=C(O)CCCc1ccccc1Cc1ccccc1-c1nc(C(=O)NCCCCC2CCCCC2)co1 | False |

INPUT: Here's an entry: O=C(O)CCc1cccc(Cc2ccccc2-c2nc(C(=O)NCCCCC3CCCCC3)co2)c1 . Is its IC50 below 0.6 µM?
OUTPUT: False

INPUT: Here's an entry: O=C(O)Cc1ccccc1Cc1ccccc1-c1nc(C(=O)NCCCCC2CCCCC2)co1 . Is its IC50 below 0.6 µM?
OUTPUT: False

INPUT: Here's an entry: O=C(O)Cc1cccc(Cc2ccccc2-c2nc(C(=O)NCCCCC3CCCCC3)co2)c1 . Is its IC50 below 0.6 µM?
OUTPUT: False
